# Test system: 192522-019-R-J2-PDC complex tumor spheroid viability
# assay-details: Anticancer human tumor 192522-019-R-J2-PDC patient-derived colon adenocarcinoma cell line growth inhibition [POLQ]
# stated-conditions: second compound 10 µM; first compound 1 µM; stronger effect = lower value
quantity-name: viability, T/C (%)
State the answer as a number, implicitly in %.

Sample records with viability, T/C:
molecule	target-desc	viability, T/C (%)
CC1COCCN1c1cc(-c2ccnn2C)c2ccnc(-c3ccn[nH]3)c2n1 (stereo not drawn) + Nc1ccc(C#CCN(C(=O)Cc2ncc(C(F)(F)F)cc2C(F)(F)F)c2ccc(F)cc2)nn1	192522-019-R-J2-PDC complex tumor spheroid viability	43.5
COc1cccc(OCCCN)c1-c1cc(Nc2cnc(C#N)cn2)n[nH]1 + Nc1ccc(C#CCN(C(=O)Cc2ncc(C(F)(F)F)cc2C(F)(F)F)c2ccc(F)cc2)nn1	192522-019-R-J2-PDC complex tumor spheroid viability	46.8

Could you now look at the following molecule, please?
Request the reported viability, T/C associated with CNCc1ccc(-c2[nH]c3cc(F)cc4c3c2CCNC4=O)cc1 + Nc1ccc(C#CCN(C(=O)Cc2ncc(C(F)(F)F)cc2C(F)(F)F)c2ccc(F)cc2)nn1
102

###

// reported viability, T/C per item
# Test system: 192522-019-R-J2-PDC complex tumor spheroid viability
# assay-details: Anticancer human tumor 192522-019-R-J2-PDC cell line growth inhibition [POLQ];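 note: spheroids exposed to drugs for seven days before reading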;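 for viability, T/C: 100% = DMSO vehicle control viability in luminescence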
# stated-conditions: second compound 0.0316 µM; first compound 0.00316 µM; stronger effect = lower value
State the answer as a number, implicitly in %.

Sample records with viability, T/C:
molecule	viability, T/C, %
CCc1c2c(nc3ccc(O)cc13)-c1cc3c(c(=O)n1C2)COC(=O)[C@]3(O)CC + Cc1cccc(N(C)C(=O)C2C(O)CCN2c2nc(C)cc(C(F)(F)F)c2C#N)c1	95.4
C=CCn1c(=O)c2cnc(Nc3ccc(N4CCN(C)CC4)cc3)nc2n1-c1cccc(C(C)(C)O)n1 + Nc1ccc(C#CCN(C(=O)Cc2ncc(C(F)(F)F)cc2C(F)(F)F)c2ccc(F)cc2)nn1	104
CC[C@@]1(O)C(=O)OCc2c1cc1n(c2=O)Cc2cc3c(CN(C)C)c(O)ccc3nc2-1 + Nc1ccc(C#CCN(C(=O)Cc2ncc(C(F)(F)F)cc2C(F)(F)F)c2ccc(F)cc2)nn1	97.1
Cn1ncnc1[C@H]1c2n[nH]c(=O)c3cc(F)cc(c23)N[C@@H]1c1ccc(F)cc1 + Cc1cccc(N(C)C(=O)C2C(O)CCN2c2nc(C)cc(C(F)(F)F)c2C#N)c1	96.3
CC[C@@]1(O)C(=O)OCc2c1cc1n(c2=O)Cc2cc3c(CN(C)C)c(O)ccc3nc2-1 + COC1C(OC(N)=O)C(O)C(Oc2ccc3c(O)c(NC(=O)c4ccc(O)c(CC=C(C)C)c4)c(=O)oc3c2C)OC1(C)C	101

Request the reported viability, T/C associated with COc1cccc(OCCCN)c1-c1cc(Nc2cnc(C#N)cn2)n[nH]1 + Cc1cccc(N(C)C(=O)C2C(O)CCN2c2nc(C)cc(C(F)(F)F)c2C#N)c1
91.4

Request the reported viability, T/C associated with Cn1ncnc1[C@H]1c2n[nH]c(=O)c3cc(F)cc(c23)N[C@@H]1c1ccc(F)cc1 + COC1C(OC(N)=O)C(O)C(Oc2ccc3c(O)c(NC(=O)c4ccc(O)c(CC=C(C)C)c4)c(=O)oc3c2C)OC1(C)C
95.2

Request the reported viability, T/C associated with COc1cccc(OCCCN)c1-c1cc(Nc2cnc(C#N)cn2)n[nH]1 + Nc1ccc(C#CCN(C(=O)Cc2ncc(C(F)(F)F)cc2C(F)(F)F)c2ccc(F)cc2)nn1
102

Request the reported viability, T/C associated with CCc1c2c(nc3ccc(O)cc13)-c1cc3c(c(=O)n1C2)COC(=O)[C@]3(O)CC + COC1C(OC(N)=O)C(O)C(Oc2ccc3c(O)c(NC(=O)c4ccc(O)c(CC=C(C)C)c4)c(=O)oc3c2C)OC1(C)C
96.3

Request the reported viability, T/C associated with C=CCn1c(=O)c2cnc(Nc3ccc(N4CCN(C)CC4)cc3)nc2n1-c1cccc(C(C)(C)O)n1 + Cc1cccc(N(C)C(=O)C2C(O)CCN2c2nc(C)cc(C(F)(F)F)c2C#N)c1
98.9

Request the reported viability, T/C associated with CC[C@@]1(O)C(=O)OCc2c1cc1n(c2=O)Cc2cc3c(CN(C)C)c(O)ccc3nc2-1 + Cc1cccc(N(C)C(=O)C2C(O)CCN2c2nc(C)cc(C(F)(F)F)c2C#N)c1
103

###

// reported viability, T/C per item
# Test system: 192522-019-R-J2-PDC complex tumor spheroid viability
# assay-details: Anticancer human tumor 192522-019-R-J2-PDC cell line growth inhibition [POLQ];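 note: spheroids exposed to drugs for seven days before reading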;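 for viability, T/C: 100% = DMSO vehicle control viability in luminescence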
# stated-conditions: second compound 1 µM; first compound 0.0316 µM; stronger effect = lower value
State the answer as a number, implicitly in %.

compound	quantity-name	observed
COc1cccc(OCCCN)c1-c1cc(Nc2cnc(C#N)cn2)n[nH]1 + Cc1cccc(N(C)C(=O)C2C(O)CCN2c2nc(C)cc(C(F)(F)F)c2C#N)c1	viability, T/C	62

Request the reported viability, T/C associated with COc1ccc([C@@H](O)c2cc(-c3ncnc4cc(N5CCOCC5)ccc34)c(F)cc2Cl)nn1 + COC1C(OC(N)=O)C(O)C(Oc2ccc3c(O)c(NC(=O)c4ccc(O)c(CC=C(C)C)c4)c(=O)oc3c2C)OC1(C)C
109

Request the reported viability, T/C associated with COc1cc(C2c3cc4c(cc3C(OC3OC5COC(C)OC5C(O)C3O)C3COC(=O)C23)OCO4)cc(OC)c1O (stereo not drawn) + Cc1cccc(N(C)C(=O)C2C(O)CCN2c2nc(C)cc(C(F)(F)F)c2C#N)c1
108

###

# System: 192522-019-R-J2-PDC complex tumor spheroid viability
# assay-details: Anticancer human tumor 192522-019-R-J2-PDC cell line growth inhibition [POLQ];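 note: spheroids exposed to drugs for seven days before reading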
# stated-conditions: curve of first compound; second compound 3.16 µM
quantity-name: IC50

Sample records with IC50:
molecule	IC50
CCCS(=O)(=O)Nc1ccc(F)c(C(=O)c2c[nH]c3ncc(-c4ccc(Cl)cc4)cc23)c1F + COC1C(OC(N)=O)C(O)C(Oc2ccc3c(O)c(NC(=O)c4ccc(O)c(CC=C(C)C)c4)c(=O)oc3c2C)OC1(C)C	> 10 µM
CC[C@@]1(O)C(=O)OCc2c1cc1n(c2=O)Cc2cc3c(CN(C)C)c(O)ccc3nc2-1 + Cc1cccc(N(C)C(=O)C2C(O)CCN2c2nc(C)cc(C(F)(F)F)c2C#N)c1	> 0.1 µM
COc1cc2cc(C(=O)CCC(=O)O)sc2cc1OC + Nc1ccc(C#CCN(C(=O)Cc2ncc(C(F)(F)F)cc2C(F)(F)F)c2ccc(F)cc2)nn1	> 10 µM
COc1cc(C2c3cc4c(cc3C(OC3OC5COC(C)OC5C(O)C3O)C3COC(=O)C23)OCO4)cc(OC)c1O (stereo not drawn) + Cc1cccc(N(C)C(=O)C2C(O)CCN2c2nc(C)cc(C(F)(F)F)c2C#N)c1	> 10 µM
C=CC(=O)N1CCN(c2nc(=O)n(-c3c(C)ccnc3C(C)C)c3nc(-c4c(O)cccc4F)c(F)cc23)C(C)C1 (stereo not drawn) + Cc1cccc(N(C)C(=O)C2C(O)CCN2c2nc(C)cc(C(F)(F)F)c2C#N)c1	> 10 µM

Request the reported IC50 associated with C=CCn1c(=O)c2cnc(Nc3ccc(N4CCN(C)CC4)cc3)nc2n1-c1cccc(C(C)(C)O)n1 + Nc1ccc(C#CCN(C(=O)Cc2ncc(C(F)(F)F)cc2C(F)(F)F)c2ccc(F)cc2)nn1
0.901 µM

Request the reported IC50 associated with O=c1[nH]cc(F)c(=O)[nH]1 + Cc1cccc(N(C)C(=O)C2C(O)CCN2c2nc(C)cc(C(F)(F)F)c2C#N)c1
> 10 µM

Request the reported IC50 associated with O=C(c1cc(Cc2n[nH]c(=O)c3ccccc23)ccc1F)N1CCN(C(=O)C2CC2)CC1 + Cc1cccc(N(C)C(=O)C2C(O)CCN2c2nc(C)cc(C(F)(F)F)c2C#N)c1
> 10 µM

###

// reported viability, T/C per item
# Tested on: 192522-019-R-J2-PDC complex tumor spheroid viability
# assay-details: Anticancer human tumor 192522-019-R-J2-PDC cell line growth inhibition [POLQ];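 note: spheroids exposed to drugs for seven days before reading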;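 for viability, T/C: 100% = DMSO vehicle control viability in luminescence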
# stated-conditions: second compound 10 µM; first compound 0.0316 µM; stronger effect = lower value
Reply with a number, then the unit it belongs to.

Sample records with viability, T/C:
compound	viability, T/C
COc1cccc2c1C(=O)c1c(O)c3c(c(O)c1C2=O)CC(O)(C(=O)CO)CC3OC1CC(N)C(O)C(C)O1 (stereo not given) + Nc1ccc(C#CCN(C(=O)Cc2ncc(C(F)(F)F)cc2C(F)(F)F)c2ccc(F)cc2)nn1	92.4%
CC(C)n1c(=O)n(C)c2cnc3cc(F)c(-c4ccc(OCCCN5CCCCC5)nc4)cc3c21 + Nc1ccc(C#CCN(C(=O)Cc2ncc(C(F)(F)F)cc2C(F)(F)F)c2ccc(F)cc2)nn1	105%
C#Cc1c(F)ccc2cc(O)cc(-c3ncc4c(N5CC6CCC(C5)N6)nc(OCC56CCCN5CC(F)C6)nc4c3F)c12 (stereo not given) + Nc1ccc(C#CCN(C(=O)Cc2ncc(C(F)(F)F)cc2C(F)(F)F)c2ccc(F)cc2)nn1	91.9%

# query: viability, T/C | item COc1cc(C2c3cc4c(cc3C(OC3OC5COC(C)OC5C(O)C3O)C3COC(=O)C23)OCO4)cc(OC)c1O (stereo not given) + Nc1ccc(C#CCN(C(=O)Cc2ncc(C(F)(F)F)cc2C(F)(F)F)c2ccc(F)cc2)nn1 | system: 192522-019-R-J2-PDC complex tumor spheroid viability
104%

# query: viability, T/C | item Nc1ccn(C2OC(CO)C(O)C2(F)F)c(=O)n1 (stereo not given) + Cc1cccc(N(C)C(=O)C2C(O)CCN2c2nc(C)cc(C(F)(F)F)c2C#N)c1 | system: 192522-019-R-J2-PDC complex tumor spheroid viability
108%

# query: viability, T/C | item CNCc1ccc(-c2[nH]c3cc(F)cc4c3c2CCNC4=O)cc1 + COC1C(OC(N)=O)C(O)C(Oc2ccc3c(O)c(NC(=O)c4ccc(O)c(CC=C(C)C)c4)c(=O)oc3c2C)OC1(C)C | system: 192522-019-R-J2-PDC complex tumor spheroid viability
102%

# query: viability, T/C | item C=CCn1c(=O)c2cnc(Nc3ccc(N4CCN(C)CC4)cc3)nc2n1-c1cccc(C(C)(C)O)n1 + Cc1cccc(N(C)C(=O)C2C(O)CCN2c2nc(C)cc(C(F)(F)F)c2C#N)c1 | system: 192522-019-R-J2-PDC complex tumor spheroid viability
119%

# query: viability, T/C | item CC1COCCN1c1cc(C2(S(C)(=N)=O)CC2)nc(-c2ccnc3[nH]ccc23)n1 (stereo not given) + Nc1ccc(C#CCN(C(=O)Cc2ncc(C(F)(F)F)cc2C(F)(F)F)c2ccc(F)cc2)nn1 | system: 192522-019-R-J2-PDC complex tumor spheroid viability
102%

# query: viability, T/C | item C=CC(=O)N1CCN(c2nc(=O)n(-c3c(C)ccnc3C(C)C)c3nc(-c4c(O)cccc4F)c(F)cc23)C(C)C1 (stereo not given) + Nc1ccc(C#CCN(C(=O)Cc2ncc(C(F)(F)F)cc2C(F)(F)F)c2ccc(F)cc2)nn1 | system: 192522-019-R-J2-PDC complex tumor spheroid viability
104%

# query: viability, T/C | item O=C(c1cc(Cc2n[nH]c(=O)c3ccccc23)ccc1F)N1CCN(C(=O)C2CC2)CC1 + Nc1ccc(C#CCN(C(=O)Cc2ncc(C(F)(F)F)cc2C(F)(F)F)c2ccc(F)cc2)nn1 | system: 192522-019-R-J2-PDC complex tumor spheroid viability
107%

Ref: PubChem BioAssay AID1963850
